- Test system: CYP3A4/5
- PROTOCOL TEXT: in vitro CYP450 metabolism inhibition assay in human liver microsomes, CYP3A (midazolam or nifedipine)
- MEASUREMENT CONTEXT: HLM, midazolam as substrate; figure in parentheses not defined
REPORTED PROPERTY: IC50

1) FC(F)(F)c1ccc(COC(Cn2ccnc2)c2ccc(Cl)cc2Cl)cc1 (stereo not shown) [dapaconazole, Dapaconazole] | 7.69 nM

====

- Test system: CYP3A4/5
- PROTOCOL TEXT: in vitro CYP450 metabolism inhibition assay in human liver microsomes, CYP3A (midazolam or nifedipine)
- MEASUREMENT CONTEXT: microsomes
pIC50: −log10 of the molar value.
REPORTED PROPERTY: pIC50

1. FC(F)(F)c1ccc(COC(Cn2ccnc2)c2ccc(Cl)cc2Cl)cc1 (stereo not shown) | 7.52

====

- TGT: CYP1A2 (Homo sapiens, UniProt P05177)
- Sequence (P05177 whole entry): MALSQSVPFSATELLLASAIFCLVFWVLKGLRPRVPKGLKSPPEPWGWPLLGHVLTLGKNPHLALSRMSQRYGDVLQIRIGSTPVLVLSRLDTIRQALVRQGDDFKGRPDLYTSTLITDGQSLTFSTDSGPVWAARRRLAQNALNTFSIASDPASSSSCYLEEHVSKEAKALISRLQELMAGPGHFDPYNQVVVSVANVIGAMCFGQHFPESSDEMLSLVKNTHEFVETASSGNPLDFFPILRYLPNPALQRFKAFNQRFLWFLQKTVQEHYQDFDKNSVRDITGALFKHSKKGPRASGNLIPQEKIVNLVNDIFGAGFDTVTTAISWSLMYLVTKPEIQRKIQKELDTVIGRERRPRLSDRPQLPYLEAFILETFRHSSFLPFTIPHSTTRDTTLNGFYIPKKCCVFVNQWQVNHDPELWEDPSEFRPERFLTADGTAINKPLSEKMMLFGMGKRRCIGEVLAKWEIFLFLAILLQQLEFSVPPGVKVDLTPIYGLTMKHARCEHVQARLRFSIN
- MEASUREMENT CONTEXT: microsomes
REPORTED PROPERTY: Ki (nM)

1) FC(F)(F)c1ccc(COC(Cn2ccnc2)c2ccc(Cl)cc2Cl)cc1 (stereo not shown) | 1840

====

- TGT: CYP2A6 (Homo sapiens, UniProt P11509)
- Sequence (P11509 whole entry): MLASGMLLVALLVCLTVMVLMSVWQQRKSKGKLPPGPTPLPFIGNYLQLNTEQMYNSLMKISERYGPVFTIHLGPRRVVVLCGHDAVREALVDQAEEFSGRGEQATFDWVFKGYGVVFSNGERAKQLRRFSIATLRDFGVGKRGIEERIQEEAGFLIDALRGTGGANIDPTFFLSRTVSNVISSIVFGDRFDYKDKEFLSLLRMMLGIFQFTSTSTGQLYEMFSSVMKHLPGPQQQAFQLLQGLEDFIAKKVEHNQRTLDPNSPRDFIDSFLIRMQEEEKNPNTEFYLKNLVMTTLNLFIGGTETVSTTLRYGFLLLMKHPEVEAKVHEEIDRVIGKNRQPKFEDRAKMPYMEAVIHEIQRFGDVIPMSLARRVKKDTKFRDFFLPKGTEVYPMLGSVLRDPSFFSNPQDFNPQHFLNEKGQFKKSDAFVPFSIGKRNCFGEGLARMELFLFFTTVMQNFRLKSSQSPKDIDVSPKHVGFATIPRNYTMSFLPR
- PROTOCOL TEXT: in vitro CYP450 metabolism inhibition assay in human liver microsomes, CYP2A6 (coumarin)
- MEASUREMENT CONTEXT: microsomes
pIC50: −log10 of the molar value.
REPORTED PROPERTY: pIC50

1) FC(F)(F)c1ccc(COC(Cn2ccnc2)c2ccc(Cl)cc2Cl)cc1 (stereo not shown) | 4.68

====

- TGT: CYP1A2 (Homo sapiens)
- MEASUREMENT CONTEXT: microsomes
pIC50: −log10 of the molar value.
REPORTED PROPERTY: pIC50

1) FC(F)(F)c1ccc(COC(Cn2ccnc2)c2ccc(Cl)cc2Cl)cc1 (stereo not shown) [dapaconazole, Dapaconazole] | 5.43

====

- Test system: CYP3A4/5
- PROTOCOL TEXT: in vitro CYP450 metabolism inhibition assay in human liver microsomes, CYP3A (midazolam or nifedipine)
- MEASUREMENT CONTEXT: HLM, 3A4, range over midazolam and nifedipine substrates
REPORTED PROPERTY: IC50

1. FC(F)(F)c1ccc(COC(Cn2ccnc2)c2ccc(Cl)cc2Cl)cc1 (stereo not shown) | 8 to 30 nM
